# target_entity: T1, mouse KLK7 (mouse, UniProt Q91VE3 26-249, limits assumed)
# T1 construct: also called mKLK7
# experiment_notes: SPR (Biacore), antibody captured on Protein A chip, KLK as analyte, single-cycle kinetics, 25 C
Below, each of the binders is paired with its reported Kd value.
The figure you give is taken to be in nM; do not add the unit.

For orientation, consider the following solved cases.
binder	Kd, nM
KLK5/KLK7-Dual-Ab3 (antibody, V domains shown, Captured on a Protein A chip as an antibody; also called KLK5/7-Dual-Ab3) VH: QLQLQESGPGLVKPSETLSLTCTVSGGSISSDDYYWVWIRQPPGKGLEWIGSIDYYASTYYSPSLKSRVTISVDTSKNQFSLKLSSVTAADTAVYYCARGRPLGYGAKHYYYGMDVWGQGTTVTVSS VL: DIQMTQSPSSLSASVGDRVTITCRASQSISSYLNWYQQKPGKAPKLLIYSASSLQSGVPSRFSGSGSGTDFTLTISSLQPEDFATYYCQQSPYFPPLTFGGGTKVEIK	1.11
KLK5/KLK7-Dual-Ab4 (antibody, V domains shown, Captured on a Protein A chip or coupled to a CM5 chip as an antibody; also called KLK5/7-Dual-Ab4) VH: QLQLQESGPGLVKPSETLSLTCTVSGGSISSLDYYWVWIRQPPGKGLEWIGSIDYSGDTYYNPSLKSRVTISVDTSKNQFSLKLSSVTAADTAVYYCARGRPLGYGARHYYYAMDVWGQGTTVTVSS VL: DIQMTQSPSSLSASVGDRVTITCRASQSISSYLNWYQQKPGKAPKLLIYSASSLQSGVPSRFSGSGSGTDFTLTISSLQPEDFATYYCQQSPYFPPLTFGGGTKVEIK	0.129
KLK5/KLK7-Dual-Ab1 (antibody, V domains shown, Captured on a Protein A chip as an antibody; also called KLK5/7-Dual-Ab1) VH: QLQLQESGPGLVKPSETLSLTCTVSGGSISSSDYYWGWIRQPPGKGLEWIGSIYYSGSTYYNPSLKSRVTISVDTSKNQFSLKLSSVTAADTAVYYCARGRPLGYGARHYYYGMDVWGQGTTVTVSS VL: DIQMTQSPSSLSASVGDRVTITCRASQSISSYLNWYQQKPGKAPKLLIYSASSLQSGVPSRFSGSGSGTDFTLTISSLQPEDFATYYCQQSPPFPPLTFGGGTKVEIK	1

We now examine a further binder.
Please look up its Kd: KLK5/KLK7-Dual-Ab2 (antibody, V domains shown, Captured on a Protein A chip as an antibody; also called KLK5/7-Dual-Ab2) VH: QLQLQESGPGLVKPSETLSLTCTVSGGSISSDDYYWVWIRQPPGKGLEWIGSIDYFASTYYNPSLKSRVTISVDTSKNQFSLKLSSVTAADTAVYYCARGRPLGYGARHDYYGMDVWGQGTTVTVSS VL: DIQMTQSPSSLSASVGDRVTITCRASQSISSYLNWYQQKPGKAPKLLIYSASSLQSGVPSRFSGSGSGTDFTLTISSLQPEDFATYYCQQSPYFPPLTFGGGTKVEIK
1.55
